Reported IC50 against human HIF-PHD2 (Homo sapiens), gathered from multiple publications, appears below.

See these solved cases before continuing.
> print(dat)
                                   compound                   study.target       observed
1  C[C@H](NC(=O)C1=C(O)c2cc(Cl)ccc2C2(CCOCC2)C1=O)C(=O)O  human HIF-PHD2 (Homo sapiens)  100 to 500 nM
2  Cn1c(=O)c(C(=O)NCC(=O)O)c(O)c2cc(-c3ccccc3N3CCCCC3)cnc21  human HIF-PHD2 (Homo sapiens)   50 to 100 nM
3  Cc1nn(CC(C)(C)C)c2c(O)nc(-n3cc(C(=O)O)cn3)nc12  human HIF-PHD2 (Homo sapiens)       > 300 nM
4  Cn1c(=O)c(C(=O)NCC(=O)O)c(O)c2cc(-c3cc(Cl)ncn3)cnc21  human HIF-PHD2 (Homo sapiens)        < 50 nM
5  CCC1(C)C(=O)C(C(=O)NCC(=O)O)=C(O)c2cc(Cl)ccc21 (single isomer, unassigned)  human HIF-PHD2 (Homo sapiens)  100 to 500 nM

Value wanted: IC50 (human HIF-PHD2 (Homo sapiens)) of entry "Cn1c(=O)c(C(=O)NCC(=O)O)c(O)c2ccc(-c3ccccc3)nc21"
< 50 nM

How about CC1(C#N)C(=O)C(C(=O)NCC(=O)O)=C(O)c2cc(F)ccc21 (stereo not shown) ?
< 100 nM
